Assay: Selectivity index, ratio of CC50 for Cytotoxicity against Swiss mouse peritoneal macrophages to EC50 for intracellular Leishmania infantum MHOM/MA(BE)/67 ITMAP263 amastigotes infected in Swiss mouse peritoneal macrophages
Format: toxicity, cell-based
Details: read-out: Ratio CC50/EC50
Would you kindly list selectivity ratio for each of these molecules?

Q) Let me know recorded selectivity ratio for Cc1ncnc2c1c(-c1cc[nH]n1)cn2[C@@H]1O[C@H](CO)[C@@H](O)[C@H]1O , thanks.
A) > 8

Q) Recall and state the measured selectivity ratio for Cc1ncnc2c1c(-c1ncccc1Cl)cn2[C@@H]1O[C@H](CO)[C@@H](O)[C@H]1O .
A) > 50

Q) Please look at this molecule and report its selectivity ratio: Cc1ncnc2c1c(-c1ccc[nH]1)cn2[C@@H]1O[C@H](CO)[C@@H](O)[C@H]1O
A) 91.4

Q) Item Cc1ncnc2c1c(-c1cccnc1)cn2[C@@H]1O[C@H](CO)[C@@H](O)[C@H]1O : provide selectivity ratio
A) > 2.8

Q) For the molecule Cc1ncnc2c1c(-c1cccc(Cl)n1)cn2[C@@H]1O[C@H](CO)[C@@H](O)[C@H]1O , give its measured selectivity ratio value.
A) > 4.51

Q) Identify the reported selectivity ratio for the following entry. Cc1ncnc2c1c(-c1ccc(C(F)(F)F)cc1)cn2[C@@H]1O[C@H](CO)[C@@H](O)[C@H]1O
A) > 5.6

Q) Identify the reported selectivity ratio for the following entry. Cc1ncnc2c1c(-c1cncnc1)cn2[C@@H]1O[C@H](CO)[C@@H](O)[C@H]1O
A) > 9.9

Q) Tell me its selectivity ratio given Cc1ncnc2c1c(-c1ccccn1)cn2[C@@H]1O[C@H](CO)[C@@H](O)[C@H]1O as the entry.
A) > 27

Q) Look up and state reported selectivity ratio for COc1ccccc1-c1cn([C@@H]2O[C@H](CO)[C@@H](O)[C@H]2O)c2ncnc(C)c12
A) > 3

Q) Output selectivity ratio of Cc1ncnc2c1c(-c1nccs1)cn2[C@@H]1O[C@H](CO)[C@@H](O)[C@H]1O
A) 15.5

Q) Provide selectivity ratio value for the following molecule: Cc1ncnc2c1c(-c1cccs1)cn2[C@@H]1O[C@H](CO)[C@@H](O)[C@H]1O
A) 2.5

Q) Give selectivity ratio for the following molecule: Cc1ncnc2c1c(/C=C/c1ccccn1)cn2[C@@H]1O[C@H](CO)[C@@H](O)[C@H]1O
A) > 3.37

Q) Fill in reported selectivity ratio for this entry: Cc1ncnc2c1c(-c1ccc(N)cc1)cn2[C@@H]1O[C@H](CO)[C@@H](O)[C@H]1O
A) > 9.5

Q) Retrieve selectivity ratio measured for Cc1ncnc2c1c(-c1cc3ccccc3[nH]1)cn2[C@@H]1O[C@H](CO)[C@@H](O)[C@H]1O and print it.
A) > 36

Q) Answer with the recorded selectivity ratio for the molecule listed here: Cc1ncnc2c1c(-c1cccc3cccnc13)cn2[C@@H]1O[C@H](CO)[C@@H](O)[C@H]1O
A) > 17

Q) Check the records and state selectivity ratio for Oc1ncnc2[nH]ncc12 [ALLOPURINOL]
A) > 18

Q) Consider the molecule Cc1ncnc2c1c(-c1ncccn1)cn2[C@@H]1O[C@H](CO)[C@@H](O)[C@H]1O . State its measured selectivity ratio.
A) > 7.8

Q) Dear colleague, please send me the reported selectivity ratio for COc1cc(-c2cn([C@@H]3O[C@H](CO)[C@@H](O)[C@H]3O)c3ncnc(C)c23)ccc1Cl when you can.
A) > 7.3

Q) Output selectivity ratio of Cc1ncnc2c1c(-c1ccc(Cl)c(F)c1)cn2[C@@H]1O[C@H](CO)[C@@H](O)[C@H]1O
A) > 8

Q) Report selectivity ratio, nothing else, for this molecule: Cc1ncnc2c1c(-c1ccc(Cl)cn1)cn2[C@@H]1O[C@H](CO)[C@@H](O)[C@H]1O
A) > 160

Q) Note selectivity ratio for the molecule shown: Cc1ncnc2c1c(-c1cc3ccccc3o1)cn2[C@@H]1O[C@H](CO)[C@@H](O)[C@H]1O
A) 1.58

###

Kindly supply the reported remaining at 1 h values for the records listed here.
Experiment: Metabolic stability in golden hamster liver microsomes S9 fraction assessed as CYP450-mediated metabolism by measuring parent compound remaining measured after 60 mins in presence of NADPH
Type: ADME, subcellular, Mesocricetus auratus
Conditions: read-out: Stability
Quick reminder: number only, in %, skip the unit.

Q) Answer with the recorded remaining at 1 h of Cc1ncnc2c1c(-c1cc(Cl)ccn1)cn2[C@@H]1O[C@H](CO)[C@@H](O)[C@H]1O only.
A) 87

Q) Return value of remaining at 1 h for input Cc1ncnc2c1c(-c1ncccc1Cl)cn2[C@@H]1O[C@H](CO)[C@@H](O)[C@H]1O , no commentary.
A) 90

###

Experiment: Metabolic stability in mouse liver microsomes S9 fraction assessed as UGT-mediated metabolism by measuring parent compound remaining measured after 15 mins in presence of NADPH
Type: ADME, subcellular
Conditions: read-out: Stability
assayMetric: remaining at 0.25 h (%)
Give just the number in %; leave the unit off.

Q) Check the records and state remaining at 0.25 h for Cc1ncnc2c1c(-c1cc(Cl)ccn1)cn2[C@@H]1O[C@H](CO)[C@@H](O)[C@H]1O
A) 103

Q) Give me measured remaining at 0.25 h, please, for this compound: Cc1ncnc2c1c(-c1ncccc1Cl)cn2[C@@H]1O[C@H](CO)[C@@H](O)[C@H]1O
A) 92

###

Experiment: AUC (0 to 24) in golden hamster infected with Leishmania infantum MHOM/MA(BE)/67 amastigotes at 50 mg/kg, po SID and measured after 10 days by LC-MS/MS analysis
Assay type: ADME, organism-based, Mesocricetus auratus
Parameters: dose 50 mg/kg, time 10 day, route po
Settings: in vivo
assayMetric: AUC at 240 h (ng·h/mL)
Express the result in ng·h/mL but write the number alone.

Q) // fetch AUC at 240 h given entry Cc1ncnc2c1c(-c1cc(Cl)ccn1)cn2[C@@H]1O[C@H](CO)[C@@H](O)[C@H]1O
A) 3380
